Listing of entries alongside the reported pKd.
- target_system: PRPF40A WW12 (tandem WW domains, residues 141–236) (Homo sapiens, UniProt O75400)
- Construct: WW12 141–236, WW12long 141–248, and N-ext-WW12 56–236; 6xHis-TEV site (N, cleaved yes); made in house; host or cells: Escherichia coli BL21(DE3)
- Sequence (O75400 141-236): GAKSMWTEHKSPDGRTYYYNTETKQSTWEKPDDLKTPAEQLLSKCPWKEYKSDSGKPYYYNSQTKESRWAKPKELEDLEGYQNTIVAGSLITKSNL
- assay_notes: ITC of PRPF40A WW12 with GB1-tagged proline-rich peptides and constructs
- Format: binding
- protocol_conditions: ITC, SF1 peptides, individual value 4 (replicate 4); read-out: Kd Values with WW12, individual value
Give only the number. pKd is defined as minus log10 of concentration in molar units.

ordered_residues="MPPPPMGMMPPPPPPP [SF1_470–485]" numeric_value=4.76

As a next step, examine the sequence that follows.
Ask: Recall and state the measured pKd for TMVPLPPGVQPPLPPG [SF1_565–580, GB1-tagged 16-mer from the SF1 C-terminal region] .
Reply: 4.44
